Where these numbers come from: patent US12030840B2

Target Under Test: PPARgamma (Mus musculus, UniProt P37238)
Sequence (P37238 238-505 limits assumed): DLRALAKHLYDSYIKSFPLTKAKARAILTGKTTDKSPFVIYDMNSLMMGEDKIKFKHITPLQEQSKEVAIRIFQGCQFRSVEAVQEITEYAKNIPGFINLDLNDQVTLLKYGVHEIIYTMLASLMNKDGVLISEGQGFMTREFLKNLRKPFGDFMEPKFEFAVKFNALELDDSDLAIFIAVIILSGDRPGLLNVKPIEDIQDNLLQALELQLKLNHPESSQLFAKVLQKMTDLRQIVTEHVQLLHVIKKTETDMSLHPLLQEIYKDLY
Procedure Summary: Gal4-PPAR transactivation assay in COS-7 cells, murine PPARgamma
Type: cell-based
Condition Details: Murin
Counter-ions that a name gives are not always drawn.
Value Kind: pEC50
Notebook: values listed as pEC50 are -log10 of the concentration (mol/L).

Molecule	Target Under Test	pEC50
CSc1ccc(C(=O)/C=C/c2cc(C)c(OC(C)(C)C(=O)O)c(C)c2)cc1 [Form III, Elafibranor sodium salt]	PPARgamma (Mus musculus, UniProt P37238)	6.11

Noted for CSc1ccc(C(=O)/C=C/c2cc(C)c(OC(C)(C)C(=O)O)c(C)c2)cc1 [Form II, Elafibranor potassium salt] : its pEC50 reads 6.23

Field pEC50 (entry CSc1ccc(C(=O)/C=C/c2cc(C)c(OC(C)(C)C(=O)O)c(C)c2)cc1 [Elafibranor, reference compound] ) reads 6.24

// sample CSc1ccc(C(=O)/C=C/c2cc(C)c(OC(C)(C)C(=O)O)c(C)c2)cc1.NC(CO)(CO)CO [Form I, Elafibranor tromethamine salt] , its pEC50 was 6.14

* * *

Target Under Test: PPARalpha (Homo sapiens, UniProt Q07869)
Sequence (Q07869 200-468 limits assumed): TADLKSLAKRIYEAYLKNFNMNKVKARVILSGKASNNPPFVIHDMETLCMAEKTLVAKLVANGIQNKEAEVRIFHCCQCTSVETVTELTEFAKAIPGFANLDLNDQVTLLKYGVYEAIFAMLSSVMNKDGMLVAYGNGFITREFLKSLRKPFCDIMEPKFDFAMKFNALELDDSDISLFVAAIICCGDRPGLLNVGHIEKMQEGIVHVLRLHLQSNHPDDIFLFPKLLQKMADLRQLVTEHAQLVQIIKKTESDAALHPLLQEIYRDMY
Procedure Summary: Gal4-PPAR transactivation assay in COS-7 cells, human PPARalpha
Type: cell-based
Counter-ions that a name gives are not always drawn.
Reported pEC50 values for a set of compounds
Note: pEC50 values are expressed as the negative base-10 logarithm of concentration in M.

Worked cases, answers included:
Compound	pEC50
CSc1ccc(C(=O)/C=C/c2cc(C)c(OC(C)(C)C(=O)O)c(C)c2)cc1 [Elafibranor, reference compound]	7.24
CSc1ccc(C(=O)/C=C/c2cc(C)c(OC(C)(C)C(=O)O)c(C)c2)cc1.NC(CO)(CO)CO [Form I, Elafibranor tromethamine salt]	7.17
CSc1ccc(C(=O)/C=C/c2cc(C)c(OC(C)(C)C(=O)O)c(C)c2)cc1 [Form III, Elafibranor sodium salt]	7.11

CSc1ccc(C(=O)/C=C/c2cc(C)c(OC(C)(C)C(=O)O)c(C)c2)cc1 [Form II, Elafibranor potassium salt] on PPARalpha (Homo sapiens, UniProt Q07869) gives pEC50 = 7.19

* * *

Procedure Summary: physchem
Condition Details: 20 °C, pH 7.4, aqueous buffer, thermodynamic from solid
Value Kind: solubility at 24 h (µg/mL)
Numeric answer only, unit µg/mL assumed.

Lab book: solubility at 24 h of CSc1ccc(C(=O)/C=C/c2cc(C)c(OC(C)(C)C(=O)O)c(C)c2)cc1 [Elafibranor, reference compound] noted as 130

* * *

Target Under Test: PPARalpha (Mus musculus, UniProt P23204)
Sequence (P23204 200-468 limits assumed): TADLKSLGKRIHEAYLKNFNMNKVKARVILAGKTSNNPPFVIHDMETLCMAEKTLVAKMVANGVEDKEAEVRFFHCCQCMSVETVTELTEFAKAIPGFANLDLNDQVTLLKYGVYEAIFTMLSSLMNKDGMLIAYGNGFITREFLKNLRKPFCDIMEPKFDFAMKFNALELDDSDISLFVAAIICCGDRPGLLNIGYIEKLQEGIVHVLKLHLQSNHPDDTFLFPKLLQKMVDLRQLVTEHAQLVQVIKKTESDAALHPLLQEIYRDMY
Procedure Summary: Gal4-PPAR transactivation assay in COS-7 cells, murine PPARalpha
Assay type: cell-based
Condition Details: Murin
Structures can show the parent of a compound that is named as a salt.
Let's look at some compounds and their measured pEC50.
Just the number, please; pEC50 means minus log10 of the concentration in mol/L.

Compound	Target Under Test	pEC50
CSc1ccc(C(=O)/C=C/c2cc(C)c(OC(C)(C)C(=O)O)c(C)c2)cc1.NC(CO)(CO)CO [Form I, Elafibranor tromethamine salt]	PPARalpha (Mus musculus, UniProt P23204)	6.99
CSc1ccc(C(=O)/C=C/c2cc(C)c(OC(C)(C)C(=O)O)c(C)c2)cc1 [Form II, Elafibranor potassium salt]	PPARalpha (Mus musculus, UniProt P23204)	7.02
CSc1ccc(C(=O)/C=C/c2cc(C)c(OC(C)(C)C(=O)O)c(C)c2)cc1 [Elafibranor, reference compound]	PPARalpha (Mus musculus, UniProt P23204)	7.02

Please fill in: pEC50 reported for CSc1ccc(C(=O)/C=C/c2cc(C)c(OC(C)(C)C(=O)O)c(C)c2)cc1 [Form III, Elafibranor sodium salt] = 6.88

* * *

Target Under Test: PPARalpha (Homo sapiens, UniProt Q07869)
Procedure Summary: Gal4-PPAR transactivation assay in COS-7 cells, human PPARalpha
Format: cell-based
Condition Details: listed as Elafibranor L-Arginine salt
Value Kind: EC50 (nM)
Express the result in nM but write the number alone.

Reported EC50 ( CSc1ccc(C(=O)/C=C/c2cc(C)c(OC(C)(C)C(=O)O)c(C)c2)cc1.N=C(N)NCCC[C@H](N)C(=O)O [Form IV, Elafibranor L-arginate salt] ) = 54

* * *

Target Under Test: PPARalpha (Mus musculus, UniProt P23204)
Procedure Summary: Gal4-PPAR transactivation assay in COS-7 cells, murine PPARalpha
Assay type: cell-based
Condition Details: Murin, listed as Elafibranor L-Arginine salt
Value Kind: EC50 (nM)
Output spec: scalar in nM, unitless text.

Record CSc1ccc(C(=O)/C=C/c2cc(C)c(OC(C)(C)C(=O)O)c(C)c2)cc1.N=C(N)NCCC[C@H](N)C(=O)O [Form IV, Elafibranor L-arginate salt] , field EC50: 93

* * *

Target Under Test: PPARgamma (Mus musculus, UniProt P37238)
Procedure Summary: Gal4-PPAR transactivation assay in COS-7 cells, murine PPARgamma
Type: cell-based
Condition Details: Murin, listed as Elafibranor L-Arginine salt
Value Kind: EC50
Write the figure, then the unit, nothing else.

Data point: CSc1ccc(C(=O)/C=C/c2cc(C)c(OC(C)(C)C(=O)O)c(C)c2)cc1.N=C(N)NCCC[C@H](N)C(=O)O [Form IV, Elafibranor L-arginate salt] ; EC50 = 0.58 µM

* * *

Procedure Summary: physchem
Condition Details: 20 °C, pH 5, aqueous buffer, thermodynamic from solid
Value Kind: solubility at 24 h (µg/mL)
Field format: number, assumed µg/mL, no unit text.

The recorded solubility at 24 h for entry CSc1ccc(C(=O)/C=C/c2cc(C)c(OC(C)(C)C(=O)O)c(C)c2)cc1 [Elafibranor, reference compound] equals 1

* * *

Reported pEC50 is given for each of the following compounds.
Target Under Test: UniProt:P37231
Sequence (P37231 238-505 limits assumed): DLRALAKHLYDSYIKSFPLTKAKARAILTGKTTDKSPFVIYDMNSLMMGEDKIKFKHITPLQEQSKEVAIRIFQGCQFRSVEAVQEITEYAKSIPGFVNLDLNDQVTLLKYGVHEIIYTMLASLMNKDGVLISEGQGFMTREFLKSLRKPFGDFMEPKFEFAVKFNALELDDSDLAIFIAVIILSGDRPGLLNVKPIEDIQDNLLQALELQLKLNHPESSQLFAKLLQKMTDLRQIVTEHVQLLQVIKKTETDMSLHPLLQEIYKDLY
Procedure Summary: Gal4-PPAR transactivation assay in COS-7 cells, human PPARgamma
Format: cell-based
Where a name gives a salt, the structure may show the parent alone.
Scale for pEC50: -log10 of concentration given in mol/L; no unit attached.

Example compounds with recorded pEC50:
Compound	Target Under Test	Obs Value
CSc1ccc(C(=O)/C=C/c2cc(C)c(OC(C)(C)C(=O)O)c(C)c2)cc1.NC(CO)(CO)CO [Form I, Elafibranor tromethamine salt]	UniProt:P37231	6.31
CSc1ccc(C(=O)/C=C/c2cc(C)c(OC(C)(C)C(=O)O)c(C)c2)cc1 [Form III, Elafibranor sodium salt]	UniProt:P37231	6.25

Sure, the documented pEC50 for CSc1ccc(C(=O)/C=C/c2cc(C)c(OC(C)(C)C(=O)O)c(C)c2)cc1 [Elafibranor, reference compound] is 6.37

Form: compound = CSc1ccc(C(=O)/C=C/c2cc(C)c(OC(C)(C)C(=O)O)c(C)c2)cc1 [Form II, Elafibranor potassium salt] ; pEC50 = 6.37

* * *

Procedure Summary: physchem
Condition Details: 20 °C, pH 3, aqueous buffer, thermodynamic from solid
Value Kind: solubility at 24 h

Notebook: CSc1ccc(C(=O)/C=C/c2cc(C)c(OC(C)(C)C(=O)O)c(C)c2)cc1 [Elafibranor, reference compound] , solubility at 24 h read as < 1 µg/mL
